- testDescription: Global behaviour and reactivities, mouse
- Type: in vivo, souris
- setupConditions: mouse, in vivo, ip; souris, 1024 mg/kg i.p., 24 h après administration; read-out: mortalité tardive
quantityName: mortality at 24 h (%)
Give the value, in units of %, as a plain number.

Report measured mortality at 24 h; entry is NC(=O)C[S+]([O-])C(c1ccccc1)c1ccc(Cl)cc1 (stereo not shown) [Exemple 7, 4-chlorobenzhydrylsulfinylacétamide] 66

* * *

- System: SNC
- testDescription: Essential activity on the CNS (Tableau I and conclusions of the neuropsychopharmacological study)
- Format: in vivo
- setupConditions: in vivo
quantityName: Activité sur le SNC

Worked examples, 8 molecules total:
>  <molecule>
NC(=O)C[S+]([O-])C(c1ccccc1)c1ccc(Cl)cc1 (stereo not shown) [Exemple 7, 4-chlorobenzhydrylsulfinylacétamide]

>  <result>
stimulant

$$$$
>  <molecule>
CC(C)(C)NC(=O)C[S+]([O-])C(c1ccccc1)c1ccccc1 (stereo not shown)

>  <result>
stimulant

$$$$
>  <molecule>
O=C(C[S+]([O-])C(c1ccccc1)c1ccccc1)N1CCOCC1 (stereo not shown)

>  <result>
sédatif

$$$$
>  <molecule>
CNC(=O)C[S+]([O-])C(c1ccccc1)c1ccccc1 (stereo not shown) [Exemple 1, N-méthyl-benzhydrylsulfinylacétamide]

>  <result>
stimulant

$$$$
>  <molecule>
NC(=O)C[S+]([O-])C(c1ccccc1)c1ccc(F)cc1 (stereo not shown)

>  <result>
stimulant

$$$$
>  <molecule>
CCNC(=O)C[S+]([O-])C(c1ccccc1)c1ccccc1 (stereo not shown)

>  <result>
sédatif

$$$$
>  <molecule>
O=C(C[S+]([O-])C(c1ccccc1)c1ccccc1)N1CCCCC1 (stereo not shown) [Exemple 5, N-(benzhydrylsulfinylacétyl)-pipéridine]

>  <result>
sédatif

$$$$
>  <molecule>
NC(=O)C[S+]([O-])C(c1ccc(F)cc1)c1ccc(F)cc1 (stereo not shown) [Exemple 8, 4,4'-difluorobenzhydrylsulfinylacétamide]

>  <result>
stimulant

$$$$

Report measured Activité sur le SNC; entry is NC(=O)C[S+]([O-])C(c1ccccc1)c1ccccc1 (stereo not shown) [CRL 40476, benzhydrylsulfinylacétamide, reference compound] stimulant

Report measured Activité sur le SNC; entry is CC(C)NC(=O)C[S+]([O-])C(c1ccccc1)c1ccccc1 (stereo not shown) stimulant

* * *

- System: souris mâle
- testDescription: Toxicity, DL-0
- Assay type: in vivo
- setupConditions: i.p.
quantityName: DL-O

>  <compound>
CNC(=O)C[S+]([O-])C(c1ccccc1)c1ccccc1 (stereo not shown) [Exemple 1, N-méthyl-benzhydrylsulfinylacétamide]

>  <result>
supérieure à 256 mg/kg

$$$$
>  <compound>
NC(=O)C[S+]([O-])C(c1ccc(F)cc1)c1ccc(F)cc1 (stereo not shown) [Exemple 8, 4,4'-difluorobenzhydrylsulfinylacétamide]

>  <result>
supérieure à 256 mg/kg

$$$$

* * *

- testDescription: Global behaviour and reactivities, mouse
- Type: in vivo, souris
- setupConditions: mouse, in vivo, ip; souris, 512 mg/kg i.p., 24 h après administration; read-out: mortalité tardive
quantityName: mortality at 24 h (%)
Give the value, in units of %, as a plain number.

Report measured mortality at 24 h; entry is NC(=O)C[S+]([O-])C(c1ccccc1)c1ccc(Cl)cc1 (stereo not shown) [Exemple 7, 4-chlorobenzhydrylsulfinylacétamide] 33

Data origin, for the record: patent EP0097071A1
